biological target: Mu-type opioid receptor (Mus musculus); experiment: Displacement of [3H]DAMGO from mu opioid receptor in mouse whole brain without cerebellum
Sequence (P42866 whole entry): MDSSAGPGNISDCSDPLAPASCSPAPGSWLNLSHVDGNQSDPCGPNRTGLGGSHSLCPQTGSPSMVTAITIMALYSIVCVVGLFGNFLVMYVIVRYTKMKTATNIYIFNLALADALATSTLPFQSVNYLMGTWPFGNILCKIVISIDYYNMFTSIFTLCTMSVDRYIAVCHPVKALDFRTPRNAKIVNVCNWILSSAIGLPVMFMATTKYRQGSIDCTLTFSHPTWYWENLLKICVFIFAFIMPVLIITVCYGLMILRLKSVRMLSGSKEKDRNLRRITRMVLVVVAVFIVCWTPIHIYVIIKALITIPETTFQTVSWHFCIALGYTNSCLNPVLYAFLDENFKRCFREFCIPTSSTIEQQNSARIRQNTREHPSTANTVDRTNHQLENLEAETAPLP
Provide the reported log10 Ki of each item.
Log scale reminder: Ki in nM, then log10 taken.

Here's what some known entries look like.
In [3]: df
Out[3]:
                                   compound  measured
0  O=C(Nc1ccccc1)C1=CCC23CCN(CC4CC4)CC2(C1)Cc1ccc(O)cc13 (stereo not drawn)      1.09
1  CN(C(=O)/C=C/c1ccoc1)[C@H]1CCC23Cc4ccc(O)cc4C2(CCN(CC2CC2)C3)C1 (stereo partly drawn)      0.34
2  O=C(NCc1ccccc1)[C@@H]1CCC23CCN(CC4CC4)CC2(Cc2ccc(O)cc23)C1 (stereo partly drawn)      2.03
3  O=C(NCCc1ccccc1)[C@H]1CCC23CCN(CC4CC4)CC2(Cc2ccc(O)cc23)C1 (stereo partly drawn)      2.66

Value sought for every listed compound: log10 Ki.
1. CN(C(=O)CCc1ccccc1)[C@@H]1CCC23Cc4ccc(O)cc4C2(CCN(CC2CC2)C3)C1 (stereo partly drawn)
2. O=C(NCCc1ccccc1)C1=CCC23CCN(CC4CC4)CC2(C1)Cc1ccc(O)cc13 (stereo not drawn)
3. O=C(Nc1ccccc1)[C@H]1CCC23CCN(CC4CC4)CC2(Cc2ccc(O)cc23)C1 (stereo partly drawn)
4. O=C(NCc1ccccc1)C1=CCC23CCN(CC4CC4)CC2(C1)Cc1ccc(O)cc13 (stereo not drawn)
5. O=C(Nc1ccccc1)[C@@H]1CCC23CCN(CC4CC4)CC2(Cc2ccc(O)cc23)C1 (stereo partly drawn)

Solution:
[1.50, 1.56, 1.91, 1.53, 1.90]

====

target: Delta-type opioid receptor (Mus musculus, UniProt P32300); test: Displacement of [3H]DPDPE from delta opioid receptor in mouse whole brain without cerebellum
Sequence (P32300 whole entry, looked up): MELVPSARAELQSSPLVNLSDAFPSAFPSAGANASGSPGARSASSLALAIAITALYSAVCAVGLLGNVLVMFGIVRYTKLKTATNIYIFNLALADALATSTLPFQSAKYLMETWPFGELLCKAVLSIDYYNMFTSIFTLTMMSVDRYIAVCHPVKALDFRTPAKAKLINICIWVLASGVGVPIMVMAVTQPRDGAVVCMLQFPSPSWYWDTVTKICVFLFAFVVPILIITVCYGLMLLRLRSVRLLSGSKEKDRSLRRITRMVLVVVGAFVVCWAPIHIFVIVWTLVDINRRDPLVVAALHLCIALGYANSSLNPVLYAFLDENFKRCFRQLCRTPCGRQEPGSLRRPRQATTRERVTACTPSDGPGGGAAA
Provide the reported Ki of each item.
Answers are plain numbers, in nM.

Here's what some known entries look like.
>>> df
                                   compound                             target_system  observable  measured
0  CN(C(=O)CCc1ccccc1)[C@H]1CCC23Cc4ccc(O)cc4C2(CCN(CC2CC2)C3)C1 (stereo partly drawn)  Delta-type opioid receptor (Mus musculus, UniProt P32300)          Ki      44.3
1  O=C(NCCc1ccccc1)C1=CCC23CCN(CC4CC4)CC2(C1)Cc1ccc(O)cc13 (stereo not drawn)  Delta-type opioid receptor (Mus musculus, UniProt P32300)          Ki       412

Value sought for every listed compound: Ki.
1. CN(C(=O)/C=C/c1ccoc1)[C@@H]1CCC23Cc4ccc(O)cc4C2(CCN(CC2CC2)C3)C1 (stereo partly drawn)
2. O=C(Nc1ccccc1)C1=CCC23CCN(CC4CC4)CC2(C1)Cc1ccc(O)cc13 (stereo not drawn)
3. CN(C(=O)/C=C/c1ccoc1)[C@H]1CCC23Cc4ccc(O)cc4C2(CCN(CC2CC2)C3)C1 (stereo partly drawn)

Solution:
1: 121; 2: 192; 3: 35

====

assay: Selectivity ratio of Ki for mouse mu opioid receptor to Ki for guinea pig kappa opioid receptor
observable: Ratio Ki
Numbers only.

>>> df
                                   molecule  observable  measured
0  O=C(NCc1ccccc1)[C@@H]1CCC23CCN(CC4CC4)CC2(Cc2ccc(O)cc23)C1 (stereo partly drawn)    Ratio Ki      5.52
1  O=C(NCCc1ccccc1)C1=CCC23CCN(CC4CC4)CC2(C1)Cc1ccc(O)cc13 (stereo not drawn)    Ratio Ki      0.14

Exercise: Specify Ratio Ki for CN(C(=O)CCc1ccccc1)[C@@H]1CCC23Cc4ccc(O)cc4C2(CCN(CC2CC2)C3)C1 (stereo partly drawn) and stop.
Solution: 1.95
